Test: physchem
Type: physicochemical
Conditions: 25 °C, pH 5.5, aqueous with cosolvent or surfactant or cyclodextrin, thermodynamic from solid, Indicative solubility of capsaicin, Concentration mg/ml
Protocol: The solubility of capsaicin was determined for the following vehicles by adding an excess of capsaicin and determining the saturation solubility by UV analysis of the supernatant. […] A reference solution containing capsaicin 0.06 mg/ml in methanol was prepared. […] The supernatant from each sample was diluted 1 in 50 with methanol and analyzed by UV at 280 nm using matched quartz cuvettes versus a methanol blank.
Readout Type: solubility at 4 days (µg/mL)
# number only, unit µg/mL dropped from output

Reported solubility at 4 days, molecule COc1cc(CNC(=O)CCCC/C=C/C(C)C)ccc1O [Capsaicin] : ____ 2200

----------
Assay: physchem
Format: physicochemical
Conditions: 25 °C, aqueous with cosolvent or surfactant or cyclodextrin, thermodynamic from solid, increase of capsaicin solubility for each 1% increase in Tween 80
Readout Type: solubility

Give the measured solubility of COc1cc(CNC(=O)CCCC/C=C/C(C)C)ccc1O . ~1000 µg/mL

// data source = patent US20060148903A1
